Tested on: XF 498 CNS
assay summary: NCI tumour cell line growth inhibition, 48 h
Quick reference for TGI among some compounds
readout name: TGI (µM)

[[record]]
compound = "c1ccc(CN2CCc3[nH]c4ccccc4c3C2)cc1"
readout_name = "TGI"
unit_abbrev = "µM"
relation_sign = "="
assay_value = 68.6

[[record]]
compound = "CC(C)(C)C1CCC2c3c([nH]c4ncccc34)C3C(=O)N(c4ccccc4)C(=O)C3C2C1 (stereo not given)"
readout_name = "TGI"
unit_abbrev = "µM"
relation_sign = ">"
assay_value = 100

[[record]]
compound = "N#C/C(c1nc2ccccc2[nH]1)=c1\\s/c(=C(/N)O)c(=N)n1-c1ccccc1"
readout_name = "TGI"
unit_abbrev = "µM"
relation_sign = ">"
assay_value = 100

[[record]]
compound = "N#Cc1ccc(/C=C(/C(=O)c2ccccc2)c2ccccc2)cc1"
readout_name = "TGI"
unit_abbrev = "µM"
relation_sign = "="
assay_value = 16.4

[[record]]
compound = "CC(C)(C)OP(=O)(OC(C)(C)C)C(O)c1ccc(/C=C(\\C#N)C(N)=O)cc1 (stereo not given)"
readout_name = "TGI"
unit_abbrev = "µM"
relation_sign = ">"
assay_value = 100


====

Test system: NCI-H522 lung
assay summary: NCI tumour cell line growth inhibition, 48 h
readout name: TGI

[[record]]
compound = "CC1(C)CCCC2(C)C3C(O)CC2(C)C(O)C31 (stereo not drawn)"
target_under_test = "NCI-H522 lung"
assay_value = "> 100000 nM"

[[record]]
compound = "Cc1cc(C(=O)Nc2n[nH]c3ccccc23)n[nH]1"
target_under_test = "NCI-H522 lung"
assay_value = "> 100000 nM"

[[record]]
compound = "COc1cccc(/C=C/c2nc3c(cnn3-c3ccccc3)c(=O)[nH]2)c1"
target_under_test = "NCI-H522 lung"
assay_value = "> 100000 nM"

[[record]]
compound = "Cn1nc2ccc([N+](=O)[O-])cc2[n+]1[O-]"
target_under_test = "NCI-H522 lung"
assay_value = "> 100000 nM"

[[record]]
compound = "Nc1c(C(=O)Nc2ccccn2)sc2nc3c(cc12)C(O)CCC3 (stereo not drawn)"
target_under_test = "NCI-H522 lung"
assay_value = "2020 nM"

[[record]]
compound = "Nc1ncnc2c1ncn2C1OC(COS(N)(=O)=O)C(O)C1O (stereo not drawn)"
target_under_test = "NCI-H522 lung"
assay_value = "14.8 nM"

[[record]]
compound = "CC[C@@]1(OC(=O)CN(C)C)C(=O)OCc2c1cc1n(c2=O)Cc2cc3c(N)cccc3nc2-1"
target_under_test = "NCI-H522 lung"
assay_value = "3360 nM"

[[record]]
compound = "CN(C)C(=O)OCc1nc2c(N3CCOCC3)nc(-c3ccccc3)nc2n1C"
target_under_test = "NCI-H522 lung"
assay_value = "2020 nM"


====

Here, each record is paired with measured TGI data.
Test system: DU-145 prostate
assay summary: NCI tumour cell line growth inhibition, 48 h
readout name: TGI

[[record]]
molecule = "CCOC(=O)C(Cc1c[nH]c2cc(N(CCO)CCO)ccc12)(NC(C)=O)C(=O)OCC"
assay_value = "> 1000 µM"

[[record]]
molecule = "Cc1c[nH]c(C(=O)O)c1-c1cccn1-c1ccc(Cl)cc1[N+](=O)[O-]"
assay_value = "> 100 µM"

[[record]]
molecule = "O=C(CSCC(=O)N/N=C/c1ccccc1O)N/N=C\\c1ccccc1O"
assay_value = "> 100 µM"

[[record]]
molecule = "Nc1nonc1-c1nc2ccccc2n1Cc1ccc(F)cc1"
assay_value = "> 100 µM"

[[record]]
molecule = "Nc1ccccc1C#C/C=C\\C#CC#C/C=C\\C#Cc1ccccc1N"
assay_value = "13.5 µM"

[[record]]
molecule = "c1ccc2cc3c(cc2c1)Nc1c2ccccc2nc2cccc-3c12"
assay_value = "3.1 µM"

[[record]]
molecule = "C=CC(COC(=O)C(C)(C)OC(C)=O)c1ccc(OC(=O)C(C)C)c(OC)c1 (stereo unspecified)"
assay_value = "25.9 µM"

[[record]]
molecule = "S=C=Nc1ccc(CSc2nc3ccccc3[nH]2)cc1"
assay_value = "29.6 µM"

[[record]]
molecule = "C/C=C/C/C=C/[C@H](C)C[C@H](O)[C@@H]1C[C@@H]2O[C@H]2/C=C/[C@@H]2OC(C)(C)O[C@H]2/C=C/C[C@H](C)CC(=O)O1"
assay_value = "> 100 µM"

[[record]]
molecule = "O=C1CCCC/C1=C1/SC(=Nc2ccccc2)C(=Nc2ccccc2)N1c1ccccc1"
assay_value = "> 100 µM"

[[record]]
molecule = "c1ccc2c(c1)nn1c3ccc4nonc4c3[n-][n+]21"
assay_value = "> 100 µM"

[[record]]
molecule = "COCCOCCOCc1n(Cc2ccc3ccccc3c2)c2ccccc2[n+]1Cc1ccc2ccccc2c1"
assay_value = "2.14 µM"

[[record]]
molecule = "CC1=C(/C=C/C(=O)CC(=O)/C=C/C2=C(C)CCCC2(C)C)C(C)(C)CCC1"
assay_value = "> 100 µM"

[[record]]
molecule = "C=C1C(=O)OC2C1C(OC(=O)/C(C)=C/C)CC(O)(CCl)C1C(O)C=C(C)C21O (stereo unspecified)"
assay_value = "30.7 µM"

[[record]]
molecule = "CCCCCCCCCCCCCCCCCCNCc1ccc(Cl)cc1"
assay_value = "4.44 µM"

[[record]]
molecule = "CC(C)=NNc1snnc1C(N)=O"
assay_value = "> 100 µM"

[[record]]
molecule = "COCCOC(=O)NCn1cc(-c2ccccc2)nn1"
assay_value = "> 100 µM"

[[record]]
molecule = "O=C(Nc1cccc(-n2cc(-c3ccncc3)c(-c3ccc(O)c(Cl)c3)n2)c1)c1ccc2c(c1)OCCO2"
assay_value = "> 100 µM"

[[record]]
molecule = "CCCCN(CCCC)CCC(O)c1cc(-c2ccc(C(F)(F)F)cc2)nc(-c2ccc(C(F)(F)F)cc2)c1 (stereo unspecified)"
assay_value = "> 100 µM"

[[record]]
molecule = "COC1=N[C@H](C(C)C)C(OC)=N[C@H]1Cc1ccc(C[C@@H]2N=C(OC)[C@@H](C(C)C)N=C2OC)s1"
assay_value = "> 100 µM"

[[record]]
molecule = "OB(O)c1ccccc1C#Cc1ccccc1B(O)O"
assay_value = "82.4 µM"


====

System: A549 NSCLC
assay summary: NCI tumour cell line growth inhibition, 48 h; in the data active means GI50 below about 0.43 µM; inactive means the rest
Labels: 1 for active, -1 for inactive

[[record]]
compound = "CC1=C(/C=C/C(=O)CC(=O)/C=C/C2=C(C)CCCC2(C)C)C(C)(C)CCC1"
qualitative_label = -1

[[record]]
compound = "C[C@H]1C/C=C/[C@H]2[C@@H]3O[C@]3(C)[C@@H](C)[C@H]3[C@H](Cc4ccccc4)NC(=O)[C@]32OC(=O)O/C=C/[C@@](C)(O)C1=O"
qualitative_label = 1

[[record]]
compound = "CCC1C(C)C=NN1c1nc(N)nc(C(C#N)=Nc2ccc(N(C)C)cc2)n1 (stereo not given)"
qualitative_label = -1

[[record]]
compound = "CNC(=O)c1cc(Oc2cccc3nc(NC(=O)Nc4cc(C(F)(F)F)cc(C(F)(F)F)c4)ccc23)ccn1"
qualitative_label = -1

[[record]]
compound = "CC(C)(C)OC(=O)NCCCCn1c2c(c3ccccc3c1=O)C(=O)c1ccccc1-2"
qualitative_label = -1

[[record]]
compound = "Cc1ccc(C(=O)c2sc3nc4c(cc3c2N)CCCC4)c(C)c1"
qualitative_label = 1

[[record]]
compound = "COc1ccc(C(C)c2cc(OC)c(OC)c(OC)c2)cc1 (stereo not given)"
qualitative_label = 1

[[record]]
compound = "Nc1nonc1-c1nc2ccccc2n1Cc1ccc(F)cc1"
qualitative_label = -1

[[record]]
compound = "CNCC/C=C1\\c2cc3c(cc2-c2c1c1cc(OC)c(OC)cc1c(=O)n2C)OCO3"
qualitative_label = -1

[[record]]
compound = "COc1cc(Cl)cc(-c2nn(-c3cccc(NC(=O)Nc4cccc(C(F)(F)F)c4)c3)cc2-c2ccncc2)c1"
qualitative_label = -1


====

// reported TGI per item
Tested on: EKVX NSCLC
assay summary: NCI tumour cell line growth inhibition, 48 h
readout name: TGI (µM)

[[record]]
molecule = "O=C(CSCC(=O)N/N=C/c1ccccc1O)N/N=C\\c1ccccc1O"
readout_name = "TGI"
relation_sign = ">"
assay_value = 100

[[record]]
molecule = "CN(C)CCNCc1ccc2c(-c3ccccc3)nc3cc(Cl)c(Cl)cc3n12"
readout_name = "TGI"
relation_sign = "="
assay_value = 30.2

[[record]]
molecule = "CNC(=O)c1cc(Oc2cccc3nc(NC(=O)Nc4cc(C(F)(F)F)cc(C(F)(F)F)c4)ccc23)ccn1"
readout_name = "TGI"
relation_sign = "="
assay_value = 86.3

[[record]]
molecule = "NC(=O)CN1CC(C2=C(O)CN(CC(N)=O)C2=O)=CC1=O"
readout_name = "TGI"
relation_sign = ">"
assay_value = 100

[[record]]
molecule = "O=C1CCC(=O)N1CNc1ccc2c(c1)S(=O)(=O)c1ccccc1O2"
readout_name = "TGI"
relation_sign = ">"
assay_value = 100

[[record]]
molecule = "CN(C)C1(N(C)C)Oc2c(c(=O)n(C)c(=O)n2C)C(c2ccc(C(F)(F)F)cc2)C1(F)F (stereo not given)"
readout_name = "TGI"
relation_sign = ">"
assay_value = 100

[[record]]
molecule = "NC(=S)N=Nc1c(O)[nH]c2c(Cl)cc(Cl)cc12"
readout_name = "TGI"
relation_sign = ">"
assay_value = 100

[[record]]
molecule = "CN(C)CCCNc1ccc2nnn3c4ccc(OC(=O)c5ccccc5)cc4c(=O)c1c23"
readout_name = "TGI"
relation_sign = "="
assay_value = 20.2

[[record]]
molecule = "CC1C2CCC3C(O)C2(CC(O)C2(O)C1CC(O)C2(C)C)CC3(C)O (stereo not given)"
readout_name = "TGI"
relation_sign = ">"
assay_value = 100

[[record]]
molecule = "O=c1c2cc(Br)cc(Br)c2nc(CCCl)n1-c1ccc(O)c([N+](=O)[O-])c1"
readout_name = "TGI"
relation_sign = "="
assay_value = 75.8


# credit: PubChem BioAssay (NCI)
